- measurement_protocol: Compressive strength of fortified dentin specimens after pH cycling
- Parameters: species or system human
- measurement_context: 5 min irrigation, 3-day pH cycling; mean ± SD
Marks after values point to notes of the source that are not given here.
A collection of compounds and their measured Compressive strength

Example compounds with recorded Compressive strength:
smiles_input=O=C1O[C@H]([C@@H](O)CO)C([O-])=C1OP(=O)([O-])[O-].O=C1O[C@H]([C@@H](O)CO)C([O-])=C1OP(=O)([O-])[O-].[Mn+2].[Mn+2].[Mn+2] parameter_measured="Compressive strength" assay_value="148.03 ± 9.82 ^b Mpa"
smiles_input=O=C1O[C@H]([C@@H](O)CO)C([O-])=C1OP(=O)([O-])[O-].O=C1O[C@H]([C@@H](O)CO)C([O-])=C1OP(=O)([O-])[O-].[Zn+2].[Zn+2].[Zn+2] parameter_measured="Compressive strength" assay_value="152.40 ± 15.07 ^b Mpa"
smiles_input=O=C1O[C@H]([C@@H](O)CO)C([O-])=C1OP(=O)([O-])[O-].O=C1O[C@H]([C@@H](O)CO)C([O-])=C1OP(=O)([O-])[O-].[Sr+2].[Sr+2].[Sr+2] parameter_measured="Compressive strength" assay_value="174.01 ± 11.09 ^c Mpa"
smiles_input=O=C1O[C@H]([C@@H](O)CO)C([O-])=C1OP(=O)([O-])[O-].O=C1O[C@H]([C@@H](O)CO)C([O-])=C1OP(=O)([O-])[O-].[Mg+2].[Mg+2].[Mg+2] parameter_measured="Compressive strength" assay_value="148.97 ± 6.89 ^b Mpa"

Proceeding to the next compound to report its Compressive strength.
Compressive strength reported for this compound "O=C1O[C@H]([C@@H](O)CO)C([O-])=C1OP(=O)([O-])[O-].O=C1O[C@H]([C@@H](O)CO)C([O-])=C1OP(=O)([O-])[O-].[Ba+2].[Ba+2].[Ba+2]" : 157.96 ± 18.22 ^bc Mpa
